Assign pIC50 to each entry below.
- Target system: active p38 alpha enzyme (Upstate Biotechnology) (Homo sapiens, UniProt Q16539)
- Construct: purchased Upstate Biotechnology
- Sequence (Q16539 whole entry): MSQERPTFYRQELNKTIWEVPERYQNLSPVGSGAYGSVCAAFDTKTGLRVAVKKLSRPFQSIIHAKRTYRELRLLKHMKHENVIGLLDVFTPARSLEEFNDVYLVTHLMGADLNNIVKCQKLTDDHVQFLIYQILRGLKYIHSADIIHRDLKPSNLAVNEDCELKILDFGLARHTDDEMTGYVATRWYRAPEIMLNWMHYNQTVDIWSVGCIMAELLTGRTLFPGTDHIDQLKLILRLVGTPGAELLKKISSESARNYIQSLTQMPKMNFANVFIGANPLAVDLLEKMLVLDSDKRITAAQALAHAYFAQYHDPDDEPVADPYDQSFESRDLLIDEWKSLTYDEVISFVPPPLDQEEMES
- Protocol notes: p38α biochemical assay (ATP turnover, luminescent detection, Cambrex PKlight)
- Condition parameters: p38α biochemical assay, Table 1 Biological Activity
pIC50: −log10 of the molar value.

COc1ccc(O)c(C(=O)NCc2nc(-c3ccc(F)cc3)c(-c3nc(C(=O)NC(C)C)cs3)o2)c1 [Example 187] | < 6.00
CC(C)NC(=O)c1csc(-c2oc(CNC(=O)Cc3ccc(O)c(F)c3)nc2-c2ccc(F)cc2)n1 [Example 191] | ≥ 6.00
CC(C)NC(=O)c1csc(-c2[nH]c(CO)nc2-c2ccc(F)cc2)n1 [Example 84] | ≥ 6.00
CC(C)NC(=O)c1csc(-c2oc(CN3CCN(C(=O)C(Cl)(Cl)Cl)CC3)nc2-c2ccc(F)cc2)n1 [Example 402] | ≥ 6.00

Quick one: give me pIC50 for each item below, same order please.
1. CC(C)NC(=O)c1csc(-c2c(-c3ccc(F)cc3)noc2CNC(=O)c2ccc(Cl)c(Br)c2)n1 [Example 796]
2. CC(C)NC(=O)c1csc(-c2oc(CN3CCN(C(=O)c4cccc(O)c4)CC3)nc2-c2ccc(F)cc2)n1 [Example 361]

< 6.00
< 6.00

Quick one: give me pIC50 for each item below, same order please.
1. CC(C)NC(=O)c1csc(-c2oc(CNC(=O)c3cccc4ccccc34)nc2-c2ccc(F)cc2)n1 [Example 194]
2. CC(C)NC(=O)c1csc(-c2c(-c3ccc(F)cc3)noc2CNC(=O)c2c(F)cccc2F)n1 [Example 632]

≥ 6.00
< 6.00

Quick one: give me pIC50 for each item below, same order please.
1. Cc1onc(-c2ccc(Cl)cc2)c1-c1ccn(C(=O)NCCO)n1 [Example 5]
2. Cc1cccc([N+](=O)[O-])c1C(=O)N1CCN(Cc2nc(-c3ccc(F)cc3)c(-c3nc(C(=O)NC(C)C)cs3)o2)CC1 [Example 457]
3. CC(C)NC(=O)c1csc(-c2c(-c3ccc(F)cc3)noc2CNC(=O)c2cc3ccccc3o2)n1 [Example 638]
4. Cc1ccc([N+](=O)[O-])c(C(=O)N2CCN(Cc3nc(-c4ccc(F)cc4)c(-c4nc(C(=O)NC(C)C)cs4)o3)CC2)c1 [Example 459]
5. CC(C)NC(=O)c1csc(-c2c(-c3ccc(F)cc3)noc2CNC(=O)c2c(F)c(F)c(F)c(F)c2F)n1 [Example 757]
6. CC(C)NC(=O)c1csc(-c2oc(CN3CCN(C(=O)/C=C/c4ccccc4)CC3)nc2-c2ccc(F)cc2)n1 [Example 368]
7. CC(C)NC(=O)c1csc(-c2c(-c3ccc(F)cc3)noc2CNC(=O)C2=CCCC2)n1 [Example 582]

["≥ 6.00", "≥ 6.00", "< 6.00", "< 6.00", "< 6.00", "< 6.00", "< 6.00"]

----------
- Target system: active p38 alpha enzyme (Upstate Biotechnology) (Homo sapiens, UniProt Q16539)
- Construct: purchased Upstate Biotechnology
- Protocol notes: p38α biochemical assay (ATP turnover, luminescent detection, Cambrex PKlight)
- Condition parameters: p38α kinase; Table 1 Biological Activity
- Experimental: The p38α biochemical assay employed is based on measurement of total ATP turnover following enzyme incubation with substrate in the presence of ATP with the use of a luminescent detection reagent (Cambrex PKlight). […] The final volume was 7.5005 μL as prepared prepared from the addition of 5 ul of kinase reaction (p38 alpah+MapkapK2+ATP) with 0.0005 μL compound dissolved in DMSO, and 2.5 ul of the detection reagent. […] Assay is read using a Perkin Elmer Viewlux.
pIC50: −log10 of the molar value.
Parameter measured: pIC50

CC(C)NC(=O)c1csc(-c2c(-c3ccc(F)cc3)noc2CN(CCc2ccccc2)Cc2ccccc2)n1 | < 6.00
CC(=O)N[C@H]1CCN(C(=O)c2csc(-c3sc(C)nc3-c3ccc(F)cc3)n2)C1 | < 6.00
CC(C)NC(=O)c1csc(-c2oc(CNc3ccc(F)c(C(F)(F)F)c3)nc2-c2ccc(F)cc2)n1 | < 6.00
CC(C)NC(=O)c1csc(-c2c(-c3ccc(F)cc3)noc2CNCCOc2ccccc2)n1 | < 6.00
O=C(NCCO)c1csc(-c2c(-c3ccc(F)cc3)n[nH]c2C2CCNCC2)n1 | ≥ 6.00
CC(C)NC(=O)c1csc(-c2oc(CNCc3ccncc3)nc2-c2ccc(F)cc2)n1 | < 6.00
CC(C)NC(=O)c1csc(-c2c(-c3ccc(F)cc3)noc2CN2CC(C)OC(C)C2)n1 (stereo not drawn) | < 6.00
CC(C)NC(=O)c1csc(-c2oc(CN(Cc3cccnc3)Cc3cccnc3)nc2-c2ccc(F)cc2)n1 | < 6.00

Quick one: give me pIC50 for each item below, same order please.
1. C#CCN(C)Cc1onc(-c2ccc(F)cc2)c1-c1nc(C(=O)NC(C)C)cs1
2. Cc1nc(-c2ccc(F)cc2)c(-c2nc(C(=O)NC3CC3)cs2)s1
3. Cc1nc(-c2ccc(F)cc2)c(-c2nc(C(=O)NCC3(O)CCCCC3)cs2)s1
4. CC(C)NC(=O)c1csc(-c2c(-c3ccc(F)cc3)noc2CN2CCN(c3ccc(Cl)c(Cl)c3)CC2)n1
5. COc1ccccc1NCc1nc(-c2ccc(F)cc2)c(-c2nc(C(=O)NC(C)C)cs2)o1
6. Cc1ccc(NCc2onc(-c3ccc(F)cc3)c2-c2nc(C(=O)NC(C)C)cs2)cc1Cl
7. CC(C)NC(=O)c1csc(-c2oc(CNc3ccccc3-n3cccc3)nc2-c2ccc(F)cc2)n1
8. CC(C)NC(=O)c1csc(-c2c(-c3ccc(F)cc3)n[nH]c2C2CCN(C(=O)C3CCCO3)CC2)n1 (stereo not drawn)

["< 6.00", "< 6.00", "≥ 6.00", "< 6.00", "< 6.00", "< 6.00", "< 6.00", "≥ 6.00"]

Quick one: give me pIC50 for each item below, same order please.
1. Cc1nc(-c2ccc(F)cc2)c(-c2nc(C(=O)NC3CCN(Cc4ccccc4)CC3)cs2)s1
2. CC(C)NC(=O)c1csc(-c2oc(CNCCCN(C)c3ccccc3)nc2-c2ccc(F)cc2)n1

1: < 6.00; 2: < 6.00
